Source listed as PubChem BioAssay (NCI).

Assay: NCI Yeast Anticancer Drug Screen. Data for the sgs1 mgt1 strain (AID 161);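 also: 0% = growth of cultures given vehicle only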
Settings: S. cerevisiae sgs1 mgt1 strain, at 50.0 µM
The panel holds about 79,000 compounds, 15% with a hit somewhere; the sample as a whole holds those more often. Active and inactive are the calls of the source. Rule as the data show it: active = growth inhibition above about 70%; inactive = the rest.
Choose one outcome from this list and give only that: y = active, n = inactive

Reference set, count: 4
O=C1C(c2ccccc2)CS(=O)(=O)CC1c1ccccc1 (stereo not given)
n
Cc1ccc(S(=O)(=O)Nn2c(S)c(C#N)c(-c3ccc([N+](=O)[O-])cc3)c(C#N)c2=O)cc1
y
CCCCCc1cc(C(=O)OC/C(C)=N/O)c2ccccc2n1
y
CCCn1cnc2c(SCc3ccc(Cl)cc3Cl)nc(N)nc21
y

Next, consider the following molecule.
**Query** Hey, what did the test say about Cc1ccc(C)c(NC(=O)/C(=N\NC(N)=S)C(C#N)c2ccccc2)c1 (stereo not given) ?
**Result** n

###

Assay: NCI Yeast Anticancer Drug Screen. Data for the cln2 rad14 strain (AID 165);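 also: 0% = growth equal to vehicle treated cultures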
Details: S. cerevisiae cln2 rad14 strain, at 50.0 µM, hits give high values
This is part of a sample that, as a whole, favours compounds with a hit. Of some 79,000 tested, about 15% had one in any assay.
attribute measured: growth inhibition (%)
// note: answer is a bare numeric in %

Solved entries:
CC(C)CC(NC(=O)SCc1ccccc1)C(=O)O (stereo unspecified)
15.4
O=C(CCl)Oc1ccc(Sc2ccc(OC(=O)CCl)cc2)cc1
96.3
CCOC(=O)c1cnc2ccc(C3CCCCC3)cc2c1Nc1ccc2c(c1)OCO2
-12.8
OC(c1ccccc1)(c1ccccc1)C(F)(Cl)Cl
92.9
CCCC(=O)Oc1ccc(-c2ccccc2)cc1Br
86.7

Now for the compound whose growth inhibition we want.
**Query** Please look at this compound and report its growth inhibition: Cc1c2cnccc2c(C)c2c1sc1ccccc12
**Result** 75.5

###

Assay: NCI Yeast Anticancer Drug Screen. Data for the rad50 strain (AID 155);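 also: 0% = growth of vehicle-only cultures of the same strain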
Conditions: S. cerevisiae rad50 strain growth inhibition; at 50.0 µM
This is part of a sample that, as a whole, favours compounds with a hit. Of some 79,000 tested, about 15% had one in any assay. The source made the active and inactive calls. No stated cut-off is given here; in the data, active means growth inhibition above about 70%; inactive means the rest.
Use one of these outcomes when replying: active, inactive

Example entries begin here.
Cc1cc(Cl)cc2c1NC(=O)C2(O)C/C(=N/NC(=O)CC#N)c1cccc([N+](=O)[O-])c1 (configuration not stated)
inactive
CSc1nc(C)c(C(=O)CCN2CCOCC2)s1
active
COc1cccc(/C=N/N(C)C)c1O
inactive
CN(CCC1CCCCC1)CCC1CCCCC1
active
c1cc2cc(Cc3ccc4[nH]ccc4c3)ccc2[nH]1
inactive

**Query** Write down the call the test reported for this molecule. Item: O=C1O/C(=C(/Cl)c2c3ccccc3cc3ccccc23)c2ccccc21
**Result** active

**Query** Name the outcome recorded for Oc1ccc(-c2ccccc2)cc1O in the assay.
**Result** active

**Query** Entry O=C1CSC2(CCN(CCCN3c4ccccc4Sc4ccc(Cl)cc43)CC2)N1 : call = ?
**Result** active

**Query** Entry C=CCSc1nc2ccc(N3C(=O)C=CC3=O)cc2s1 : call = ?
**Result** active

**Query** For COc1ccccc1OCC(COC(=O)Nc1ccc(C)cc1)OC(=O)Nc1ccc(C)cc1 (configuration not stated) , which call appears in the assay record?
**Result** active

**Query** Write down the call the test reported for this molecule. Item: CC1=CC(O)(c2ccc(-c3ccccc3Cl)cc2)OC1=O (configuration not stated)
**Result** active

**Query** Identify the outcome logged in this assay for the molecule shown: C/C=C\c1cc2c(cc1CC#N)OCO2
**Result** inactive

###

Assay: NCI Yeast Anticancer Drug Screen. Data for the bub3 strain (AID 167)
Details: S. cerevisiae bub3 mutant strain, at 50.0 µM, hits give high values
Compounds without any hit were thinned out: in the full panel of roughly 79,000, 15% have a hit.
Label scheme for growth inhibition: lower than 90% is false, 90% and above is true.

Example entries and their recorded answers appear below.
Cc1[nH]c2ccccc2c1-c1ccccc1
true
COC(=O)[C@@H]1c2cc3c(c(O)c2[C@@H](OC)C[C@@]1(C)O)C(=O)c1c(O)cc2c(c1C3=O)OC1O[C@@]2(C)[C@H](O)[C@@H](N(C)C)[C@@H]1O
true
CCCCCCCCCCS(=O)(=O)Nc1ccc(C(=O)NN)cc1
false
CS/C(C#N)=C(\C#N)SC
false
Cc1csc(N)[n+]1CCC(=O)[O-]
false

**Query** Please check the record N=C(N)SCc1nc(-c2ccc(Cl)cc2)no1 and state if its growth inhibition is at or above 90%.
**Result** true

**Query** Hi, just wondering whether O=C(O)/C=C/c1ccc(Cl)c(Cl)c1 shows growth inhibition of 90% or higher.
**Result** false

**Query** Given CCCCCCCCCCCCCCNCCC(=O)O , state whether its growth inhibition is at least 90%.
**Result** true

**Query** Determine whether this molecule has growth inhibition no lower than 90%: COC(=O)c1ccc2c(c1)C(O)NC(=O)O2 (stereo not drawn)
**Result** true

**Query** Reported growth inhibition at or above 90%? OCC1CCc2[nH]c3ccccc3c2C1 (stereo not drawn)
**Result** false

**Query** Given the entry C/C=C/C1=C(Cl)C(=O)[C@@H](Cl)[C@@]1(O)C(=O)OC , answer whether its growth inhibition meets or surpasses 90%.
**Result** false

**Query** # check: growth inhibition of CC(=O)N(C)c1cc(NCc2ccccc2)ccc1OCc1ccccc1 is greater than or equal to 90%
**Result** true

**Query** Kindly determine if growth inhibition recorded for COc1ccc2c(c1)CCC1OC(c3cccnc3)OC21 (stereo not drawn) is above or exactly 90%.
**Result** false

**Query** Please tell me: is the molecule CCCCCCN(CCCCCC)CCCC(O)c1cccc2ccccc12 (stereo not drawn) at or over 90% in terms of growth inhibition?
**Result** true

**Query** Given C/C(=N\Nc1ccccn1)c1ccccn1 , state whether its growth inhibition is at least 90%.
**Result** false

**Query** Identify whether the reported growth inhibition of the following molecule is 90% or greater: C/C(=N\Oc1ncc([N+](=O)[O-])c(O/N=C(\C)c2ccccc2)n1)c1ccccc1
**Result** false

###

Assay: NCI Yeast Anticancer Drug Screen. Data for the mec2-1 strain (AID 157)
Conditions: S. cerevisiae mec2-1 strain, at 5.0 µM (retest, dose inferred, filed as 0.5), hits give high values
The panel holds about 79,000 compounds, 15% with a hit somewhere; the sample as a whole holds those more often.
attribute measured: growth inhibition (%)
Report only the number, with the unit % understood.

C=CCCCCO/N=C/c1c2c(O)c3c(O)c(C)c4c(c3c1O)C(=O)C(C)(O/C=C/C(OC)C(C)C(OC(C)=O)C(C)C(O)C(C)C(O)C(C)/C=C/C=C(\C)C(=O)N2)O4 (stereo not given)
44
COc1ccc2c(c1)CCC1OC(c3cccnc3)OC21 (stereo not given)
-19
C/C(=N\NC(=S)N1CCC(O)CC1)c1ccccn1
14

**Query** Using known records, supply growth inhibition for COc1cc(C2c3cc4c(cc3OC3(O)C=C(C)OC(=O)C23)OCO4)cc(OC)c1OC (stereo not given)
**Result** 4

**Query** Respond only with growth inhibition recorded for C=C(CN(C)C)C(=O)c1ccc(Oc2ccccc2)cc1
**Result** 99

**Query** Complete the entry with growth inhibition for CC1=C(CO)C(=O)O[C@@H]([C@@H](C)[C@H]2CC[C@H]3[C@@H]4C[C@@H](O)C5=CC=CC(=O)[C@]5(C)[C@H]4CC[C@]23C)C1
**Result** -24

**Query** Entry O=C(Nc1cccc2ccccc12)OCCCCCCl needs its growth inhibition filled in; supply it.
**Result** -2

**Query** Provide measured growth inhibition value, entry: C=C(CC)C[C@@H]1C[C@]2(C(=O)OC)c3[nH]c4ccccc4c3CCN2C1=O
**Result** 0

**Query** Please report the measured growth inhibition for CC1=CC(=N/O)/C=CC/1=C(\C#N)c1ccccc1
**Result** -11

**Query** Tell us which growth inhibition value is on record for c1cc[c]([Sn]([S]c2ccccn2)([c]2ccccc2)[c]2ccccc2)cc1
**Result** 100

###

Test: NCI Yeast Anticancer Drug Screen. Data for the sgs1 mgt1 strain (AID 161);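 also: 0% = growth of cultures given vehicle only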
Details: S. cerevisiae sgs1 mgt1 strain, at 50.0 µM
Compounds without any hit were thinned out: in the full panel of roughly 79,000, 15% have a hit. The source made the active and inactive calls. Cut-off read from the data, not from the text of the source: active = growth inhibition above about 70%; inactive = the rest.
// allowed return values: active, inactive

Observe how each entry below is paired with its result.
O=C1c2ccccc2CC(Br)c2ccccc21 (stereo unspecified)
active
O=C(c1ccccc1)C(Br)C(Br)c1ccc(Cl)c(Cl)c1 (stereo unspecified)
inactive
O=C1c2sccc2-c2cccc3cccc1c23 (tested in a mixture with another compound)
active
CCC(C)SSc1ccccc1C(=O)Nc1ccc(Cl)cc1 (stereo unspecified)
active
O=C(c1ccc(Cl)c([N+](=O)[O-])c1)c1ccc(Cl)c([N+](=O)[O-])c1
active
C=CCOC(=O)C#CCCCC
inactive
Fc1ccc(NC(=S)SCc2ccc(Cl)cc2)c(F)c1
active
Clc1ccc2nc(CCSCCc3nc4ccc(Cl)cc4[nH]3)[nH]c2c1
active

**Query** // outcome(item) with item = CC(=O)Oc1ccc(N2C(=O)C=CC2=O)cc1
**Result** inactive

**Query** What was the test verdict on O=C(N=Nc1c(O)[nH]c2ccccc12)C(O)(c1ccccc1)c1ccccc1 ?
**Result** active

**Query** Check the results log: what was the call for CCCCCCCCCCCCCCCC(=O)N1CC[N+](C)(C)CC1 ?
**Result** inactive
